TARGET_OF_ASSAY: furin, P09958;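 note: purified furin at 1:10 enzyme:substrate in 50 mM HEPES pH 7.5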
Sequence (P09958 whole entry): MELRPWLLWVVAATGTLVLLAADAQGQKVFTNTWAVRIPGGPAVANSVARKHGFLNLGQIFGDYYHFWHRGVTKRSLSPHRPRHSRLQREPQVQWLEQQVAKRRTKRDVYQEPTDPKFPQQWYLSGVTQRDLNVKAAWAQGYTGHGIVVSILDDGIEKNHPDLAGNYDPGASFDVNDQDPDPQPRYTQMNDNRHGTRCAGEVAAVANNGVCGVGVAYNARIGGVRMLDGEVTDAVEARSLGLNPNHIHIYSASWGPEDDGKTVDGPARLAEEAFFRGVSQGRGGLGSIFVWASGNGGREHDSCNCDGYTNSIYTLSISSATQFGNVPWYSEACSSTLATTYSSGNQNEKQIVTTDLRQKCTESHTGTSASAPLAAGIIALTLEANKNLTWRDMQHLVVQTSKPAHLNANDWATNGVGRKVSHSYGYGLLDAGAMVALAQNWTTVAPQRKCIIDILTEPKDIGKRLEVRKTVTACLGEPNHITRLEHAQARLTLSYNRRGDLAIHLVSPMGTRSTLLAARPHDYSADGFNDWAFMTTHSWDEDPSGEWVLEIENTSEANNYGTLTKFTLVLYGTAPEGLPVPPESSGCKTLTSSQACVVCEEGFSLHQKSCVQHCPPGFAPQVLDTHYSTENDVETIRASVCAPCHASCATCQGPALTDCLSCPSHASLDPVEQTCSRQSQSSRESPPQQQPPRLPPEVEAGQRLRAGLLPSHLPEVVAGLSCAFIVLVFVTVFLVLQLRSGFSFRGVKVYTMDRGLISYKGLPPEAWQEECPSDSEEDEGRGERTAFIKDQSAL
EXPERIMENT_DESCRIPTION: furin cleavage Z-score vs untreated control; higher = more cleavage, active = 3.5 or more, inactive = 1 or less, 8 variable residues between constant flanks
SETUP_CONDITIONS: 15 min
This is one part of the list. The true hit rate is not given.
Each entry belongs to exactly one class, chosen by where its furin cleavage Z-score falls: bucket 1 = under -0.1, bucket 2 = from -0.1 up to 2, bucket 3 = 2 and over

Query: Hey, which category is CAVWKRRAEDAGNASASA [FS-2624] in, do you know?
Response: bucket 1

Query: Hey, which category is CARLARGEDEAGNASASA [FS-2983] in, do you know?
Response: bucket 1

Query: Hey, which category is CARPARFLDSAGNASASA [FS-2051] in, do you know?
Response: bucket 2

Query: Hey, which category is CALPGRDGRDAGNASASA [FS-457] in, do you know?
Response: bucket 2

Query: Hey, which category is CAMEECSQHPAGNASASA [HC1779] in, do you know?
Response: bucket 1

Query: Hey, which category is CASKGRIRRRAGNASASA [FS-1081] in, do you know?
Response: bucket 3

Query: Hey, which category is CAMEECSQHDAGNASASA [HC1771] in, do you know?
Response: bucket 2

Query: Hey, which category is CASRSRRRRRAGNASASA [FS-1490] in, do you know?
Response: bucket 3

Query: Hey, which category is CASASRGPRSAGNASASA [FS-1078] in, do you know?
Response: bucket 3

Query: Hey, which category is CALNERIRRDAGNASASA [FS-940] in, do you know?
Response: bucket 3

Query: Hey, which category is CAVTKRDVLDAGNASASA [FS-3144] in, do you know?
Response: bucket 1
